# Test system: SK-OV-3 ovarian
# ASSAY_OVERVIEW: NCI tumour cell line growth inhibition, 48 h
molecules and their reported TGI

>  <MOLECULE>
CC1(CCC(=O)OC2CCCCC2)OCCO1

>  <TESTED_TARGET>
SK-OV-3 ovarian

>  <TGI>
> 100 µM

$$$$
>  <MOLECULE>
CC/C(CC(=O)CCC(=O)Nc1ccccc1[N+](=O)[O-])=N/NC(=O)C[n+]1ccccc1

>  <TESTED_TARGET>
SK-OV-3 ovarian

>  <TGI>
> 100 µM

$$$$
>  <MOLECULE>
CCOC(=O)C(NC(=O)c1ccccc1)(N1CCOCC1)C(F)(F)F (configuration not stated)

>  <TESTED_TARGET>
SK-OV-3 ovarian

>  <TGI>
> 100 µM

$$$$
>  <MOLECULE>
COC(=O)C(Cc1nc2ccccc2[nH]c1=O)C(=O)C(=O)Nc1ccc([N+](=O)[O-])cc1[N+](=O)[O-] (configuration not stated)

>  <TESTED_TARGET>
SK-OV-3 ovarian

>  <TGI>
64.6 µM

$$$$
>  <MOLECULE>
COc1ccc(C2SCC(=O)N2NC(=O)c2ccc(NC(C)=O)cc2)cc1 (configuration not stated)

>  <TESTED_TARGET>
SK-OV-3 ovarian

>  <TGI>
> 100 µM

$$$$
>  <MOLECULE>
CN(C)c1nc(=Nc2cccc(Cl)c2)ss1

>  <TESTED_TARGET>
SK-OV-3 ovarian

>  <TGI>
> 100 µM

$$$$
>  <MOLECULE>
Nc1ccn(C2OC(COC(=O)C34CC5CC(CC(C5)C3)C4)C(O)C2O)c(=O)n1 (configuration not stated)

>  <TESTED_TARGET>
SK-OV-3 ovarian

>  <TGI>
> 100 µM

$$$$
>  <MOLECULE>
C[N+]1(CCCl)CC[N+](C)(CCCl)CC1 (configuration not stated)

>  <TESTED_TARGET>
SK-OV-3 ovarian

>  <TGI>
> 100 µM

$$$$
>  <MOLECULE>
CCCCCCCCCCCCCCCCCC(=O)OCC(COC(=O)CCCN)OC(=O)CCCN (configuration not stated)

>  <TESTED_TARGET>
SK-OV-3 ovarian

>  <TGI>
34.3 µM

$$$$
>  <MOLECULE>
O=S(=O)(/N=C(\NO)Nc1ccc(Cl)cc1)c1cccc2nsnc12

>  <TESTED_TARGET>
SK-OV-3 ovarian

>  <TGI>
> 100 µM

$$$$
>  <MOLECULE>
CNC(=O)Cc1nc(-c2cccc(NS(=O)(=O)c3c(F)cccc3F)c2F)c(-c2ccnc(Nc3ccccc3)n2)s1

>  <TESTED_TARGET>
SK-OV-3 ovarian

>  <TGI>
27.9 µM

$$$$
>  <MOLECULE>
Cn1c2ccc(Br)cc2c2c3c(c4c5ccccc5[nH]c4c21)C(=O)N(O)C3=O

>  <TESTED_TARGET>
SK-OV-3 ovarian

>  <TGI>
0.773 µM

$$$$
